# targetUnderTest: UniProt Q96RI1
# assayName: Human GST-FXR LBD Co-activator interaction Assay (FXR HTRF assay)
# conditionInfo: GST-FXR LBD / biotin-labeled SRC-1 peptide, response relative to GW4064
readoutKind: pEC50
FYI, pEC50 means -log10 of a concentration in mol per litre.

These solved cases illustrate the format of a correct answer.
COC(=O)c1ccc(-c2nc(N3CCC(OCc4c(-c5ccccc5OC(F)(F)F)noc4C4CC4)CC3)no2)s1    6.02
COC(=O)c1cccc(-c2nc(N3CCC(OCc4c(-c5ccccc5OC(F)(F)F)noc4C4CC4)CC3)no2)c1    5.69
O=C(O)c1ccc(-c2nc(N3CCC(OCc4c(-c5ccccc5C(F)(F)F)noc4C4CC4)CC3)no2)cc1    6.23

Let us examine a further case.
The molecule identified as O=C(O)c1ccc(-c2nc(N3CCC(OCc4c(-c5c(Cl)cccc5Cl)noc4C4CC4)CC3)no2)cc1 registered its pEC50 at 6.94

====

# targetUnderTest: human GST-FXR LBD (Homo sapiens)
# assayName: Human GST-FXR LBD Co-activator interaction Assay (FXR HTRF assay)
# conditionInfo: GST-FXR LBD / biotin-labeled SRC-1 peptide, response relative to GW4064
# Description: Human GST-FXR LBD Co-activator interaction Assay. The FXR HTRF assay is a biochemical assay measuring the interaction between FXR and a coactivator protein (SRC1). […] Recombinant human Farnesoid X Receptor (FXR) ligand binding domain (amino acids 193-472) fused to glutathione S-transferase (GST) purified protein (GST-FXR LBD) was purchased (Invitrogen). […] Plates are incubated at room temperature in the dark for 2.5 hours before reading on an Envision (PerkinElmer) at 665 nm and 590 nm. […]
readoutKind: EC50 (nM)
Field format: number, assumed nM, no unit text.

These solved cases illustrate the format of a correct answer.
O=C(O)c1ccc(-c2nc(N3CCC(OCc4c(-c5c(F)cccc5F)noc4C4CC4)CC3)no2)cc1 [Example 10]    934
O=C(O)c1cccc(-c2nc(N3CCC(OCc4c(-c5c(Cl)cccc5Cl)noc4C4CC4)CC3)no2)c1 [Example 5B]    60
COC(=O)C1CCC(c2nc(N3CCC(OCc4c(-c5c(Cl)cccc5Cl)noc4C4CC4)CC3)no2)C1 (stereo not shown) [Example 7A]    1590
COC(=O)c1ccc(-c2nc(N3CCC(OCc4c(-c5c(Cl)cccc5Cl)noc4C4CC4)CC3)no2)s1 [Example 8A]    2950
O=C(O)C1CCC(c2nc(N3CCC(OCc4c(-c5c(Cl)cccc5Cl)noc4C4CC4)CC3)no2)CC1 (stereo not shown) [Example 6B]    823
O=C(O)c1ccc(-c2nc(N3CCC(OCc4c(-c5c(Cl)cccc5Cl)noc4C4CC4)CC3)no2)s1 [Example 8B]    105

Let us examine a further case.
The compound identified as O=C(O)c1ccc(-c2nc(N3CCC(OCc4c(-c5ccccc5OC(F)(F)F)noc4C4CC4)CC3)no2)cc1 [Example 1B] registered its EC50 at 90

====

# targetUnderTest: human GST-FXR LBD (Homo sapiens, UniProt Q96RI1)
# Sequence (Q96RI1 193-472 isoform Q96RI1-2): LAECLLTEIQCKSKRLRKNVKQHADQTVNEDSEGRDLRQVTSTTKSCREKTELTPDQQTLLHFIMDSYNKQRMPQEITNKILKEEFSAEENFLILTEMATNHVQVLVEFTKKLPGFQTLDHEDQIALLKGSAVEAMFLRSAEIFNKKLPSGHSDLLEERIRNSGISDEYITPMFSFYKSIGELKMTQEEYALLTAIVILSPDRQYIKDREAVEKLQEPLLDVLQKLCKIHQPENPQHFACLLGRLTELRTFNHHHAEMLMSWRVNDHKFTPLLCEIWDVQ
# assayName: Human GST-FXR LBD Co-activator interaction Assay (FXR HTRF assay)
# conditionInfo: GST-FXR LBD / biotin-labeled SRC-1 peptide, response relative to GW4064
pEC50: −log10 of the molar value.
Decide using pEC50: a value greater than or equal to 6 is condition met, a smaller one is condition not met.

Before answering, review these 5 worked examples.
O=C(O)c1ccc(-c2nc(N3CCC(OCc4c(-c5ccccc5OC(F)(F)F)noc4C4CC4)CC3)no2)s1 [Example 3B]    condition met
COC(=O)C1CCC(c2nc(N3CCC(OCc4c(-c5c(Cl)cccc5Cl)noc4C4CC4)CC3)no2)CC1 (centres unmarked) [Example 6A]    condition not met
O=C(O)c1cccc(-c2nc(N3CCC(OCc4c(-c5ccccc5OC(F)(F)F)noc4C4CC4)CC3)no2)c1 [Example 2B]    condition met
COC(=O)c1ccc(-c2nc(N3CCC(OCc4c(-c5ccccc5OC(F)(F)F)noc4C4CC4)CC3)no2)cc1 [Example 1A]    condition not met
COC(=O)c1cccc(-c2nc(N3CCC(OCc4c(-c5c(Cl)cccc5Cl)noc4C4CC4)CC3)no2)n1 [Example 9A]    condition met

State whether the measured pEC50 reaches 6, counting equality as reaching it, for O=C(O)c1cccc(-c2nc(N3CCC(OCc4c(-c5c(Cl)cccc5Cl)noc4C4CC4)CC3)no2)n1 [Example 9B]
condition met

State whether the measured pEC50 reaches 6, counting equality as reaching it, for O=C(O)C1CCC(c2nc(N3CCC(OCc4c(-c5c(Cl)cccc5Cl)noc4C4CC4)CC3)no2)C1 (centres unmarked) [Example 7B]
condition not met

The reported measurements were obtained from patent US20140039007A1.
